Taken from the supplement of paper PMC11246515.

What total protein half-life in vivo was measured for each of the following?
- test-details: total protein half-life in vivo (active degradation + dilution); higher = more stable protein
- settings: wild type E. coli NCM3722; growth: C-lim chemostat; doubling time 12 h
Answers are plain numbers, in h.

Answered cases to consult:
{"sequence-input": "MILIIYAHPYPHHSHANKRMLEQARTLEGVEIRSLYQLYPDFNIDIAAEQEALSRADLIVWQHPMQWYSIPPLLKLWIDKVFSHGWAYGHGGTALHGKHLLWAVTTGGGESHFEIGAHPGFDVLSQPLQATAIYCGLNWLPPFAMHCTFICDDETLEGQARHYKQRLLEWQEAHHG [P0A754]", "total protein half-life in vivo (h)": 10.9}
{"sequence-input": "MENKYSRLQISIHWLVFLLVIAAYCAMEFRGFFPRSDRPLINMIHVSCGISILVLMVVRLLLRLKYPTPPIIPKPKPMMTGLAHLGHLVIYLLFIALPVIGLVMMYNRGNPWFAFGLTMPYASEANFERVDSLKSWHETLANLGYFVIGLHAAAALAHHYFWKDNTLLRMMPRKRS [P0ABE5]", "total protein half-life in vivo (h)": 14.8}
{"sequence-input": "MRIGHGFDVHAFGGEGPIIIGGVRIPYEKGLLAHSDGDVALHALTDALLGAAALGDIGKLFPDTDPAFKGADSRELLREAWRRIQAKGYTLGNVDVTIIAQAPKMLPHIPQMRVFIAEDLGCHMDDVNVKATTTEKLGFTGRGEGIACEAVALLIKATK", "total protein half-life in vivo (h)": 10.7}

Consider now this further sequence.
input: Which total protein half-life in vivo is listed for MQKVVLATGNVGKVRELASLLSDFGLDIVAQTDLGVDSAEETGLTFIENAILKARHAAKVTALPAIADDSGLAVDVLGGAPGIYSARYSGEDATDQKNLQKLLETMKDVPDDQRQARFHCVLVYLRHAEDPTPLVCHGSWPGVITREPAGTGGFGYDPIFFVPSEGKTAAELTREEKSAISHRGQALKLLLDALRNG ?
output: 8.51
